assay-system: hTAS1R2 (TAS1R2/TAS1R3 sweet taste receptor) (Homo sapiens, UniProt Q8TE23)
Construct: with hTAS1R3 (TAS1R3)
Sequence (Q8TE23 20-839): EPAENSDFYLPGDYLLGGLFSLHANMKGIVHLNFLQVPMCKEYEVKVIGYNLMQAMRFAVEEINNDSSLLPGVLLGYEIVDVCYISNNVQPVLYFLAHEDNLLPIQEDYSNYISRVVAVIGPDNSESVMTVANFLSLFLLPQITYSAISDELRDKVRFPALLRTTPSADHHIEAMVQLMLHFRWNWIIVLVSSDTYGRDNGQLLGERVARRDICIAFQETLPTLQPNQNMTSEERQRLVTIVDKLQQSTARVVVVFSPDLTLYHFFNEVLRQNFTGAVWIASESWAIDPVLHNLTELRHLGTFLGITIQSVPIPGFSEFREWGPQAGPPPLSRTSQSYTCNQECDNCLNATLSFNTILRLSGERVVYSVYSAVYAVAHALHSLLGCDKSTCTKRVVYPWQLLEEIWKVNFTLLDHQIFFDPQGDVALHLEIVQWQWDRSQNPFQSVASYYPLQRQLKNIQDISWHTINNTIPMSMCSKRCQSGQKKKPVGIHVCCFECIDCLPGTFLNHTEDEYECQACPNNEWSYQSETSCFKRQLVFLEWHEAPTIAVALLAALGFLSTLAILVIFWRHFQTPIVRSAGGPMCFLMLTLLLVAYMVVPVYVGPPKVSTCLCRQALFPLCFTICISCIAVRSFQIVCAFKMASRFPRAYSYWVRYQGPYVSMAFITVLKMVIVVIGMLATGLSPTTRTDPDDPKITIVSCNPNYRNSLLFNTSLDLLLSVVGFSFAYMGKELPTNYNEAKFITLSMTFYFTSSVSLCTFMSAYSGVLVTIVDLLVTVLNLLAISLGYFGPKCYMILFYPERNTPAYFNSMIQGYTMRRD
Sequence (Q7RTX0 21-852 partner): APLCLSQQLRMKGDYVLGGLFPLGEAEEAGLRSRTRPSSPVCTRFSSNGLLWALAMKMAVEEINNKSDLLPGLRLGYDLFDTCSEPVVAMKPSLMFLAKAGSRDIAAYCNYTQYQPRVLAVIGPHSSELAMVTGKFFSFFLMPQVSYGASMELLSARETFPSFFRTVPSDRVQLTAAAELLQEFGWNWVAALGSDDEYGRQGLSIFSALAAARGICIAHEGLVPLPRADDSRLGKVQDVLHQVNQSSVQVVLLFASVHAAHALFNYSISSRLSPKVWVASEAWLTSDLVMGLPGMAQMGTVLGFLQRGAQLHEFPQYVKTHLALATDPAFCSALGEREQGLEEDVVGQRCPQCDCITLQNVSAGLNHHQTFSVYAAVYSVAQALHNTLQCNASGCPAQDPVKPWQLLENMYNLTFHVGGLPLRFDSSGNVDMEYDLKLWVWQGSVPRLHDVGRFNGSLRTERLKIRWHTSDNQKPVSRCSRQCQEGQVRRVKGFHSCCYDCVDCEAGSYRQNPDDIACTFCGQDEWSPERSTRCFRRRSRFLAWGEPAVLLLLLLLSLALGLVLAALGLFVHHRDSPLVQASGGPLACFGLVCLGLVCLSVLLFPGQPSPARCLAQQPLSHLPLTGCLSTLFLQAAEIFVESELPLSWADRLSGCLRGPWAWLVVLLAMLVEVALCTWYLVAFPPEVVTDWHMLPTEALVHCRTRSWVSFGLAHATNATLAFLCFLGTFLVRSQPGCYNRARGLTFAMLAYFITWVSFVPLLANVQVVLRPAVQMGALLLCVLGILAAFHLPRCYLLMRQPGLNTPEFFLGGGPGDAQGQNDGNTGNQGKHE
experiment-summary: calcium mobilization (GCaMP5G, FLIPR) in HEK293T-Gα[…]gust44 cells transfected with hTAS1R2 and hTAS1R3, mock-subtracted
experimental-endpoint: EC50 (µM)

[[record]]
molecule = "OC[C@H]1O[C@H](O[C@]2(CCl)O[C@H](CCl)[C@@H](O)[C@@H]2O)[C@H](O)[C@@H](O)[C@H]1Cl [sucralose]"
recorded_result = 52

